Test system: NRG-mice bearing LNCaP tumors
test_name: Biodistribution (and PET/SPECT imaging) in NRG-mice bearing LNCaP tumors
Type: in vivo
run_parameters: 24 h p.i., Avg
*1 amine or outer side, *2 acyl side, *3 side chain or, on linkers, in order; H or OH if unused. Where a SMILES comes first, the peptide text is derived from it. [ ]: non-standard residue; d: D form. The star is where a group is joined. ξ: configuration not given here. ξLys(Nα-CO-ξAad) = O=C(O)CCCC(NC(=O)NC(CCCCN*)C(=O)O)C(=O)O; Butanoyl(4-(4-NO2Ph)) = O=C(CCCc1ccc([N+](=O)[O-])cc1)*; DOTA = O=C(O)CN1CCN(CC(=O)O)CCN(CC(=O)*)CCN(CC(=O)O)CC1; ξAla(9-anthryl) = NC(Cc1c2ccccc2cc2ccccc12)C(=O)O; X1 = O=C(C1CCC(CN[*:1])CC1)[*:2]; ξK = NCCCCC(N)C(=O)O
measured_metric: Biodistribution: Adrenal gland (% ID/g)
# output: bare number, implied unit % ID/g

Exercise: Record request: Biodistribution: Adrenal gland value, item O=C([O-])CN1CCN(CC(=O)[O-])CCN(CC(=O)NCCCCC(NC(=O)CNC(=O)CCCc2ccc([N+](=O)[O-])cc2)C(=O)NCC(=O)NCC2CCC(C(=O)NC(Cc3c4ccccc4cc4ccccc34)C(=O)NCCCCC(NC(=O)NC(CCCC(=O)O)C(=O)O)C(=O)O)CC2)CCN(CC(=O)[O-])CC1.[225Ac+3] (stereo not shown) [^225Ac-CCZ02017] ({Butanoyl(4-(4-NO2Ph))}-G[ξK](DOTA)G[X1][ξAla(9-anthryl)]-{ξLys(Nα-CO-ξAad)})
Solution: 0.59

----------
Overview of recorded Biodistribution: Intestine for various compounds
Tested on: NRG-mice bearing LNCaP tumors
test_name: Biodistribution (and PET/SPECT imaging) in NRG-mice bearing LNCaP tumors
Assay type: in vivo
run_parameters: 3 h p.i., Avg
*1 amine or outer side, *2 acyl side, *3 side chain or, on linkers, in order; H or OH if unused. Where a SMILES comes first, the peptide text is derived from it. [ ]: non-standard residue; d: D form. The star is where a group is joined. ξ: configuration not given here. Butanoyl(4-(4-NO2Ph)) = O=C(CCCc1ccc([N+](=O)[O-])cc1)*; DOTA = O=C(O)CN1CCN(CC(=O)O)CCN(CC(=O)*)CCN(CC(=O)O)CC1; ξAla(9-anthryl) = NC(Cc1c2ccccc2cc2ccccc12)C(=O)O; X2 = O=C(NC(CCCCN*)C(=O)O)NC(CC(F)C(=O)O)C(=O)O; X1 = O=C(C1CCC(CN[*:1])CC1)[*:2]; ξK = NCCCCC(N)C(=O)O
Give your result in % ID/g as a bare value.

compound	value_reported
COc1ccc(CCCC(=O)NCC(=O)NC(CCCCNC(=O)CN2CCN(CC(=O)[O-])CCN(CC(=O)[O-])CCN(CC(=O)[O-])CC2)CC(=O)NCC2CCC(C(=O)NC(Cc3c4ccccc4cc4ccccc34)C(=O)NCCCCC(NC(=O)NC(CCCC(=O)O)C(=O)O)C(=O)O)CC2)cc1.[68Ga+3] (stereo not drawn) [^68Ga-CCZ02015]	1.17

Exercise: Can you look up Biodistribution: Intestine on NRG-mice bearing LNCaP tumors for O=C([O-])CN1CCN(CC(=O)[O-])CCN(CC(=O)NCCCCC(NC(=O)CNC(=O)CCCc2ccc([N+](=O)[O-])cc2)C(=O)NCC(=O)NCC2CCC(C(=O)NC(Cc3c4ccccc4cc4ccccc34)C(=O)NCCCCC(NC(=O)NC(CC(F)C(=O)O)C(=O)O)C(=O)O)CC2)CCN(CC(=O)[O-])CC1.[68Ga+3] (stereo not drawn) [^68Ga-CCZ02025] ({Butanoyl(4-(4-NO2Ph))}-G[ξK](DOTA)G[X1][ξAla(9-anthryl)]-X2) ?
Solution: 1.12

Exercise: Entry COc1ccc(CCCC(=O)NCC(=O)NC(CCCCNC(=O)CN2CCN(CC(=O)[O-])CCN(CC(=O)[O-])CCN(CC(=O)[O-])CC2)CC(=O)NCC2CCC(C(=O)NC(Cc3c4ccccc4cc4ccccc34)C(=O)NCCCCC(NC(=O)NC(CC(F)C(=O)O)C(=O)O)C(=O)O)CC2)cc1.[177Lu+3] (stereo not drawn) [^177Lu-CCZ02019] , system NRG-mice bearing LNCaP tumors: what Biodistribution: Intestine was measured?
Solution: 0.98
